- System: UACC-62 melanoma
- method.description: NCI-60 one-dose screen, 48 h (100 = growth as untreated, 0 = no growth, -100 = all killed)
- test.conditions: 10 µM unless noted
About 83,000 compounds went through this panel and 20% of them were active in at least one assay; those are over-represented in the sample as a whole.

| molecule | growth (%) |
| --- | --- |
| CCCCCCCCCCCCNC(=S)N/N=C/c1ccccc1O | 77.7 |
| COc1ccc2c(c1)C(C)Cc1c(Cl)ncnc1N2C (stereo not drawn) | 0.755 |
| CCOc1cc(NC(=O)c2ccccc2)c(OCC)cc1N | 106 |

----------
- Test system: OVCAR-4 ovarian
- method.description: NCI-60 one-dose screen, 48 h (100 = growth as untreated, 0 = no growth, -100 = all killed)
- test.conditions: 10 µM
This is part of a sample that, as a whole, favours compounds with a hit. Of some 83,000 tested, about 20% had one in any assay.
growth values by entry
result.type: growth (%)

| test.smiles | measured.number |
| --- | --- |
| CCCCCCNC(=O)Nc1ncnc2c1ncn2-c1ccccc1 | 85.3 |
| NC(=S)Cc1ccccc1 | 97 |
| CSc1nc2sc3cc(Cl)c(Cl)cc3n2c(=N)c1C#N | 97.5 |
| CCC(Br)(CC)C(=O)c1ccc(OCC(=O)O)c(Cl)c1Cl | 97.4 |

----------
growth values by entry
- System: MDA-MB-231 breast
- method.description: NCI-60 one-dose screen, 48 h (100 = growth as untreated, 0 = no growth, -100 = all killed)
- test.conditions: 10 µM unless noted
This is part of a sample that, as a whole, favours compounds with a hit. Of some 83,000 tested, about 20% had one in any assay. Active and inactive are the calls of the source. The calls were made as follows: active = growth percent below 10; inactive = the rest.

| test.smiles | system.under.test | growth |
| --- | --- | --- |
| C=C(C)[C@@H]1CC[C@]2(C(N)=O)CC[C@]3(C)[C@H](CC[C@@H]4[C@@]5(C)C/C(=C/c6cccnc6)[C@H](O)C(C)(C)[C@@H]5CC[C@]43C)[C@@H]12 | MDA-MB-231 breast | 28.9% [100 µM] (inactive) |
| CCOC(CNC(=O)c1cccc([N+](=O)[O-])c1)OCC | MDA-MB-231 breast | 92.9% (inactive) |
| C#C[C@]1(O)CC[C@H]2[C@@H]3CC=C4c5nc(N)sc5CC[C@]4(C)[C@H]3CC[C@@]21C | MDA-MB-231 breast | 45.4% (inactive) |
| Nc1ccc(NC(=O)c2ccccc2)c2c1C(=O)c1ccccc1C2=O | MDA-MB-231 breast | 94.7% (inactive) |
| NC1=NC(=O)NC1(c1ccccc1)c1ccccc1 | MDA-MB-231 breast | 94% (inactive) |
| COc1ccc(NC(=S)NNc2ccc(-c3ccc(OC)c(OC)c3)nn2)cc1 | MDA-MB-231 breast | 96.1% (inactive) |
| O=C1Nc2ccccc2/C1=C/C(=O)c1ccc(N2CCOCC2)cc1 | MDA-MB-231 breast | 88.4% (inactive) |
| O=c1c2c3c(sc2n2cnnc2n1Cc1ccccc1)CCCC3 | MDA-MB-231 breast | 96.6% (inactive) |
| N#C/C(C(=O)c1ccccc1)=C1/C(=O)Nc2ccc(F)cc21 | MDA-MB-231 breast | 92.2% (inactive) |
